biological target: Potassium channel subfamily K member 3 (Homo sapiens); experiment: In Vitro Electrophysiological Assay: In Vitro Electrophysiological Analysis of the Human TASK-1 and TASK-3 Channels Via Two-Electrode Voltage Clamp Technique in Xenopus laevis OocytesSubsequently, the oocytes were injected with 0.5-5 ng of a cRNA solution coding for TASK-1 or TASK-3. For the electrophysiological analysis of the channel proteins expressed in the oocytes, the two-electrode voltage clamp technique was used. The measurements were conducted at room temperature (21-22° C.) using a Turbo TEC 10CD amplifier (NPI), recorded at 2 kHz and filtered with 0.4 kHz. Substance administration was performed using a gravitation-driven perfusion system. Here, the oocyte is located in a measuring chamber and exposed to the solution stream of 10 ml/min. The level in the measuring chamber is monitored and regulated by sucking off the solution using a peristaltic pump.
Sequence (O14649 whole entry, the tested form may be a part): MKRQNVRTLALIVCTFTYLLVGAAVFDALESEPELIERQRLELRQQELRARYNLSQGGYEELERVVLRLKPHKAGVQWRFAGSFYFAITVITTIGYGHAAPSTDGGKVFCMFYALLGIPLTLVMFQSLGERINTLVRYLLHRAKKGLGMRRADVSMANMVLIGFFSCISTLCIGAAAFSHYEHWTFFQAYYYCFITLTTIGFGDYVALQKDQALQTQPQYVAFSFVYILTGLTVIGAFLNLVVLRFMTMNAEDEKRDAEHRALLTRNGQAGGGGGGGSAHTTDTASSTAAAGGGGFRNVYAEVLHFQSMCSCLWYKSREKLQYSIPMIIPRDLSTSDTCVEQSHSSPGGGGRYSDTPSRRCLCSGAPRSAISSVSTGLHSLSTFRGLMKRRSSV
Reported metric: pIC50
A value of pIC50 is the negative decimal logarithm of a concentration given in moles per litre.

Task: What value of measured pIC50 is listed for CCOc1ccccc1NC(=O)N1CC2CN(Cc3c(-c4ccc(Br)cc4)nc4ccccn34)CC2C1 (stereo unspecified) ?
Output: 6.13
